- system-name: T1, 4H2944-bN
- T1 chain: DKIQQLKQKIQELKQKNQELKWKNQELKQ
- test-method-notes: two-hybrid library CCNG1;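 note: natural log of median RNA to DNA barcode read ratio; higher means stronger binding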
# interaction score listing for each entry below

binder: DKIQQLKQENQELEQEIQELEWKNQELKQ [4H2696-bN]
interaction score: -0.274
--
binder: DKIQQLKQKIQELKQEIQELEWENQELEQ [4H2883-bN]
interaction score: 0.237
--
binder: DKIQQLKQKIQELKQKNQELKWEIQELEQ [4H2937-bN]
interaction score: -1.12
--
binder: DEIQQLEQEIQELEQENQELEWENQELEQ [4H19-bN]
interaction score: 2.27
--
binder: DKIQQLKQKIQELKQKNQELKWKNQELKQ [4H2944-bN]
interaction score: -0.735
